ASSAYED_SYSTEM: full length active recombinant SYK enzyme (Homo sapiens)
Construct: full length active recombinant SYK enzyme (Millipore, Calif.)
ASSAY_NOTES: Inhibition of Syk tyrosine phosphorylation activity (LANCE TR-FRET kinase assay)
RUN_CONDITIONS: 1 nM active SYK enzyme, 550 nM SYK-substrate, 100 μM ATP, 1 hour at room temperature
pIC50: −log10 of the molar value.
REPORTED_ENDPOINT: pIC50

Sample answers from the record:
[[record]]
compound = "CC[C@@H](Nc1nnc(C(N)=O)c(Nc2cccc(-n3nccn3)c2)n1)C(N)=O [Example 86]"
value = "6.00 to 7.00"

[[record]]
compound = "Cn1ncc2ccc(Nc3nc(N[C@@H]4CCCC[C@@H]4N)nnc3C(N)=O)cc21 [Example 182]"
value = "> 9.00"

[[record]]
compound = "Cc1ccc(Nc2nc(N[C@@H](C(N)=O)C(C)C)nnc2C(N)=O)cc1C [Example 208]"
value = "7.00 to 8.00"


Entry under review: NC(=O)c1nnc(N[C@H](CC(F)F)C(N)=O)nc1Nc1cc(Cl)c2ncccc2c1 [Example 185] . Reported pIC50?
8.00 to 9.00

Which pIC50 is listed for Cc1cc(Nc2nc(N[C@@H]3CCCC[C@@H]3N)nnc2C(N)=O)ccc1F [Example 26] ?
8.00 to 9.00

Param item = CC(C)C[C@@H](Nc1nnc(C(N)=O)c(Nc2ccc3c(cnn3C)c2)n1)C(N)=O [Example 111] ; retrieve measured pIC50.
8.00 to 9.00

Query (compound): NC(=O)c1nnc(N[C@@H]2CCCC(F)(F)[C@@H]2N)nc1Nc1ccc(Cl)c(Cl)c1 [Example 236] ; field requested: pIC50
6.00 to 7.00

---

ASSAYED_SYSTEM: full length active recombinant SYK enzyme (Homo sapiens)
Construct: full length active recombinant SYK enzyme (Millipore, Calif.)
ASSAY_NOTES: Inhibition of Syk tyrosine phosphorylation activity (LANCE TR-FRET kinase assay)
RUN_CONDITIONS: 1 nM active SYK enzyme, 550 nM SYK-substrate, 100 μM ATP, 1 hour at room temperature
Procedure: The in vitro and in vivo human Syk activities of the inventive compounds can be determined by various procedures known in the art, such as a test for their ability to inhibit the activity of human plasma Syk. Inhibition of Syk Tyrosine Phosphorylation Activity SYK tyrosine phosphorylation activity is measured using the LANCE™ Technology developed by Perkin Elmer Life and Analytical Sciences (Boston, Mass.). […]
# IC50 per record follows

# returns recorded IC50 (system: full length active recombinant SYK enzyme (Homo sapiens)) for CCC(=O)N1CCC(c2ccc(Nc3nc(N[C@@H]4CCCC[C@@H]4N)nnc3C(N)=O)cc2)CC1 [Example 28]
1 to 10 nM

Provide the documented IC50 with full length active recombinant SYK enzyme (Homo sapiens) as the system for NC(=O)c1nnc(N[C@@H]2CCCC[C@@H]2N)nc1Nc1cnc2ncccc2c1 [Example 45]
10 to 100 nM

Checklist item: IC50 tested on full length active recombinant SYK enzyme (Homo sapiens), entry Cn1ccc2cc(Nc3nc(N[C@H]4CN[C@@H](CO)C4)nnc3C(N)=O)cnc21 [Example 153] , value?
10 to 100 nM

Observed IC50 on full length active recombinant SYK enzyme (Homo sapiens) for NC(=O)c1nnc(N[C@@H]2CCCC(F)(F)[C@@H]2N)nc1Nc1csc2ncccc12 [Example 38] , please.
10 to 100 nM
